The reported measurements were obtained from the supplement of paper PMC8728848.

assay.target: Man(a1-3)[Man(a1-6)]Man(b1-4)GlcNAc(b1-4)GlcNAc
protocol.details: glycan array binding signal (z-score within array); higher = stronger binding
condition.description: glycan notation: IUPAC condensed, linker removed
Only a selection was taken, and the strongest signals are over-represented in it overall.
assay.metric: glycan array binding signal (z-score)
Number only, please.

In plain terms, MUB70 (Lactobacillus reuteri) (protein) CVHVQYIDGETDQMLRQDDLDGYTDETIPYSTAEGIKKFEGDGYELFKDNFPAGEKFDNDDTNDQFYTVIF has a documented glycan array binding signal (z-score) of -0.322

In plain terms, Malectin (Xenopus laevis), Q6INX3 (protein) SGLADKVIWAVNAGGESHVDVHGIHYRKDPLEGRVGRASDYGMKLPILRSNPEDQVLYQTERYNEDSFGYDIPIKEEGEYVLVLKFAEVYFAQSQQKVFDVRVNGHTVVKDLDIFDRVGHSTAHDEIIPISIKKGKLSVQGEVSTFTGKLSVEFVKGYYDNPKVCALFIMKGTADDVPMLQPHPGLE has a documented glycan array binding signal (z-score) of -0.072

In plain terms, LecRKVI.2 (protein) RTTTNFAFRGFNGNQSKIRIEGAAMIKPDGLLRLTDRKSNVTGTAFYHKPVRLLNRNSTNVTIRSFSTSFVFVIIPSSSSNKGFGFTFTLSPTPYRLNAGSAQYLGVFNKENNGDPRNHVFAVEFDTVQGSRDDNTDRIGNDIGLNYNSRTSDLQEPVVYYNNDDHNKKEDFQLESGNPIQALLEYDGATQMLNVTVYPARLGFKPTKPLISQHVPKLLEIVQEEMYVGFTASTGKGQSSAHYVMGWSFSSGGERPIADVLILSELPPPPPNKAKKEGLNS has a documented glycan array binding signal (z-score) of -0.376

In plain terms, HFR-1 (Triticum aestivum) (protein) MSPQSFTLETTTTTPAAKGSDPSYFQSAPACHEMIQHKELLLHLYAYQNVQKTPDANQAVIVESKRPECFGILAANDWTVYDGPAHNANLVAHAQGLHLGASMAKENWFICFNMVFVNQRFTGSSFKVMGDFQGTAHNGEWAIVGGTGEFAYAQGVIAFKKTQQSERNARMELHVRAMCLSFLRPLLSLGDGSAVAKIGPWGKMSGELLDIPSTPQRLERITIRHGVVIDSLAFSFIDKAGEPYNVGPWGGRRGDNKDTIELAPSEIVTEVSGTVGIFAEDNVEYNAIASLTITTNHRPYGPFGETQSTPFSVPVQDNNNIVGFFACAGKYVEALGVYVRSPVST has a documented glycan array binding signal (z-score) of 5.48

Further cases:
In plain terms, TbCVNHOb (Tuber borchii) (protein) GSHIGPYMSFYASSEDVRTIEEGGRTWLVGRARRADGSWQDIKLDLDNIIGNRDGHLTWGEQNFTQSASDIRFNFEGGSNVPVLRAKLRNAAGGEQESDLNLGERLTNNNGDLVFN has a documented glycan array binding signal (z-score) of -0.197

In plain terms, Banana lectin (Musa acuminata) (protein) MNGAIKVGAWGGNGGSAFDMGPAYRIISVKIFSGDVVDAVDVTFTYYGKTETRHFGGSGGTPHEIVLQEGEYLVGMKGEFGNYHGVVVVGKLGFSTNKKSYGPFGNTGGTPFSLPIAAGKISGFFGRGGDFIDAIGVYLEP has a documented glycan array binding signal (z-score) of 7.64
